tested on: HepG2 cells; test: Biotransformation experiment in HepG2 (concentration in cells and exposure medium); conditions: HepG2 exposed to 15 mg·L^−1 PHE, 48 h, metabolites
MEASURE NAME: Concentration in cells, samples (n = 3)
// return the numeric value with its unit appended

Concentration in cells, samples (n = 3) in this record for Oc1cccc2c1ccc1ccccc12 [1-OH-PHE] : 72 ± 27 ng/g

For reference, reported Concentration in cells, samples (n = 3) for Oc1ccc2ccc3ccccc3c2c1 [3-OH-PHE] stands at 195 ± 33 ng/g

So for Oc1cccc2ccc3ccccc3c12 [4-OH-PHE] , the logged Concentration in cells, samples (n = 3) turned out to be 260 ± 85 ng/g

Recorded result, Oc1ccc2c(ccc3ccccc32)c1 [2-OH-PHE] , Concentration in cells, samples (n = 3): 284 ± 92 ng/g
